Numbers sourced from the kinase profiling compilation of Christmann-Franck et al. (2016).

This section presents compounds with their documented kinase still bound, per cent of control values.
target: STK33 (human) (UniProt Q9BYT3); experiment: KINOMEscan competition binding; conditions: compound 10.0 µM
Sequence (Q9BYT3 whole entry, looked up): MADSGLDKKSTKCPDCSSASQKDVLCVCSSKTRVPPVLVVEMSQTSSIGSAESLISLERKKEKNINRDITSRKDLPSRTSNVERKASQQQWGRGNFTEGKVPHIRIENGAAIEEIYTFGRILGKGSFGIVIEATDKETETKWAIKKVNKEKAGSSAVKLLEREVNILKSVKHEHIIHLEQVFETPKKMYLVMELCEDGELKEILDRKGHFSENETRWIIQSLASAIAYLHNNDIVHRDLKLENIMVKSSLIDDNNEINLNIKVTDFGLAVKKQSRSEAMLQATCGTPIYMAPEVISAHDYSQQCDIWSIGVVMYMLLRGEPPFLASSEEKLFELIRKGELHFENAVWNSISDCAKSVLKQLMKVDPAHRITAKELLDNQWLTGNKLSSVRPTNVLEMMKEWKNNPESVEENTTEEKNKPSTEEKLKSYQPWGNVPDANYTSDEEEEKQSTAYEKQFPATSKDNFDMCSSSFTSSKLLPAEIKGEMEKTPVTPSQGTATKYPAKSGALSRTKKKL
Write the answer as a number in %, unit excluded.

CN1CCN(c2ccc(C(=O)Nc3ncc4c(n3)N(C)c3ccccc3C(=O)N4C)cc2)CC1	100
COc1cc(N2CCC(N3CCN(C)CC3)CC2)ccc1Nc1ncc2c(n1)N1CCCC1CC(=O)N2C (stereo not drawn)	7
CCN1C(=O)CC(c2ccccc2)N(C2CCCC2)c2nc(Nc3ccc(C(=O)NC4CCN(C)CC4)cc3OC)ncc21 (stereo not drawn)	20

Let us examine a further case.
[in] Given COc1cc(C(=O)NC2CCN(C)CC2)ccc1Nc1ncc2c(n1)N(C1CCC(O)CC1)CCC(=O)N2C (stereo not drawn) , state its recorded kinase still bound, per cent of control.
[out] 5.6

* * *

target: UniProt:P78356; assay: KINOMEscan competition binding; conditions: compound 10.0 µM
Sequence (P78356 whole entry, looked up): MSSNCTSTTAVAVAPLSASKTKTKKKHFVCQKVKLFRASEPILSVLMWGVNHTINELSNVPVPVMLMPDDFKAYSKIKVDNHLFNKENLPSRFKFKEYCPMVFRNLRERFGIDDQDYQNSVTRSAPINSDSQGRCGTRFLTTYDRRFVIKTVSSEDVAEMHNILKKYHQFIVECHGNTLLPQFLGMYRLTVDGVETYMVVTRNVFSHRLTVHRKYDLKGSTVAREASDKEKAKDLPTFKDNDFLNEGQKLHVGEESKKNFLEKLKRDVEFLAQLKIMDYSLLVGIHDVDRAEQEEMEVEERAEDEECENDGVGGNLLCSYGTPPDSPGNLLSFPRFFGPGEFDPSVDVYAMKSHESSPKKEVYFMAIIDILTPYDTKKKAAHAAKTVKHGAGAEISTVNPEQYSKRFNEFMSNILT
This section presents compounds with their documented kinase still bound, per cent of control values.

Consider the reported kinase still bound, per cent of control for these compounds:
N=C1NC(=O)/C(=C/c2ccc(-c3cncc4ccccc34)o2)S1	2.6%
COc1cc(N2CCN(C)CC2)ccc1Nc1ncc2c(n1)N(C1CCCC1)C(C)CC(=O)N2 (configuration not stated)	31%
CS(=O)(=O)Nc1ccc(-c2cc(/C=C3\SC(=N)NC3=O)c[nH]c2=O)cc1	13%
CN1C(=O)[C@H]2CCC[C@H]2N(C2CCCC2)c2nc(Nc3ccc(C(N)=O)cc3)ncc21	9.6%
N=C1NC(=O)/C(=C/c2c[nH]c(=O)c(-c3ccc(S(N)(=O)=O)cc3)c2)S1	22%

Let us examine a further case.
[in] Given CN1C(=O)[C@H]2CCC[C@H]2N(C2CCCC2)c2nc(Nc3ccc4ncccc4c3)ncc21 , state its recorded kinase still bound, per cent of control.
[out] 13%

* * *

target: MKNK2 (human); assay: KINOMEscan competition binding; conditions: compound 10.0 µM
Assign classes using reported kinase still bound, per cent of control values and the ranges range A: < 20%; range B: ≥ 20% and < 30%; range C: ≥ 30%, please.

Field: example entries. Status: answers known.
CN1CCN(c2ccc(C(=O)Nc3ncc4c(n3)N(C)c3ccccc3C(=O)N4C)cc2)CC1	range C
COc1cc(N2CCN(C)CC2)ccc1Nc1ncc2c(n1)N(C)c1ccccc1C(=O)N2	range B
CN1C(=O)c2ccccc2N(C)c2nc(Nc3ccc(N4CCC(O)CC4)cc3)ncc21	range A
COc1cc(N2CCN(C)CC2)ccc1Nc1ncc2c(n1)N(C)c1sccc1C(=O)N2C	range B
CS(=O)(=O)Nc1ccc(-c2cncc(/C=C3\SC(=N)NC3=O)c2)cc1	range B

[in] Which class is correct for the following compound? COc1cc(N2CCC(C)(O)CC2)ccc1Nc1ncc2c(n1)N(C1CCCC1)CCC(=O)N2C
[out] range A

[in] Which class is correct for the following compound? CN1C(=O)c2ccccc2N(C)c2nc(NS(=O)(=O)c3ccc(N)cc3)ncc21
[out] range C

[in] Which class is correct for the following compound? CCN1C(=O)CC(c2ccccc2)N(C2CCCC2)c2nc(Nc3ccc(C(=O)NC4CCN(C)CC4)cc3OC)ncc21 (centres undefined)
[out] range C

[in] Which class is correct for the following compound? CN1C(=O)[C@H]2CCC[C@H]2N(C2CCCC2)c2nc(Nc3ccc(C(N)=O)cc3)ncc21
[out] range A

[in] Which class is correct for the following compound? COc1cc(N2CCN(C)CC2)ccc1Nc1ncc2c(n1)N(C(C)C)c1ccccc1C(=O)N2
[out] range A

[in] Which class is correct for the following compound? COc1cc(N2CCN(C)CC2)ccc1Nc1ncc2c(n1)N(C)c1ccccc1N(C)C2=O
[out] range A

[in] Which class is correct for the following compound? CS(=O)(=O)Nc1ccc(-c2ncc(/C=C3\SC(=N)NC3=O)s2)cc1
[out] range A

[in] Which class is correct for the following compound? O=C1NC(=O)/C(=C/c2ccc(-c3ccc4c(C(=O)Nc5cccc(C(F)(F)F)c5)cccc4c3)o2)S1
[out] range C

[in] Which class is correct for the following compound? N=C1NC(=O)/C(=C/c2ccc(-c3ccc(C(=O)Nc4ccc(N5CCNCC5)cc4)cc3O)o2)S1
[out] range B

[in] Which class is correct for the following compound? O=C1NC(=O)/C(=C/c2c[nH]c(=O)c(-c3ccc(N4CCNCC4)nc3)c2)S1
[out] range C

[in] Which class is correct for the following compound? COc1cc(N2CCN(C)CC2)ccc1Nc1ncc2c(n1)N(C)c1ccccc1C(=O)N2C
[out] range A

[in] Which class is correct for the following compound? COc1cc(N2CCC(O)CC2)ccc1Nc1ncc2c(n1)N1CCc3cccc(c31)C(=O)N2C
[out] range C

[in] Which class is correct for the following compound? CS(=O)(=O)Nc1ccc(-c2ccc(/C=C3\SC(=N)NC3=O)o2)cc1
[out] range C

[in] Which class is correct for the following compound? N=C1NC(=O)/C(=C/c2ccc(-c3csc4ccccc34)o2)S1
[out] range C
